koff values, listed per item
Test target: T1, Cyno CD33 ECD-HSA (cynomolgus monkey)
T1 construct: Cyno CD33 extracellular domain fused to monomeric human serum albumin and a six-histidine tag; also called C33W1
Assay details: ProteOn SPR, mAb captured by anti-human Fc, 1:1 Langmuir fit
Observation type: koff

Binder | Observation type | Observed result
C33B80 (antibody, IgG1, V domains shown, huIgG1 F405L; also called C33F85; C33H76/C33L39) VH: EVQLLESGGGLVQPGGSLRLSCAASGFTFNYAMSWVRQAPGKGLEWVSAISGSGGSTYYADSVKGRFTISRDISKNTLYLQMNSLRAEDTAVYYCARTYNSGYYDGDFDYWGQGTLVTVSS VL: QSALTQPASVSGSPGQSIPISSTGTSSDDGKNNIVSWYQQHPGKAPKLMIYKDSKRPSGVSNRFSGSKSGNTASLTISGLQADDEADYHCCSYAGASNHVVFGGGTKLTVL | koff | 0.000259 s⁻¹
C33B66 (antibody, IgG1, V domains shown, huIgG1 F405L; also called C33F71; C33H55/C33L42) VH: QVQLQESGPGLVKPSGTLSLTCAVSGGSISSSNWWSWVRQPPGRGLEWIGEIYHSGNTNNSPSLKSRVTISADKSKNQFSLKLSSVTAADTAVYFCARIIAVARYFDSWGQGTLVTVSS VL: SYVLTQPPSVSVAPGQTARITCGGNNIGIKSVHWYQQKPGQAPVLVVYDDSDRPPGIPERFSGSNSGNTATLTITRVEAGDEADYYCQVWDSSSDHVVFGGGTKLTVL | koff | 0.000266 s⁻¹
